studyTarget: hERG channel (Homo sapiens (Human), UniProt Q12809)
Sequence (Q12809 whole entry): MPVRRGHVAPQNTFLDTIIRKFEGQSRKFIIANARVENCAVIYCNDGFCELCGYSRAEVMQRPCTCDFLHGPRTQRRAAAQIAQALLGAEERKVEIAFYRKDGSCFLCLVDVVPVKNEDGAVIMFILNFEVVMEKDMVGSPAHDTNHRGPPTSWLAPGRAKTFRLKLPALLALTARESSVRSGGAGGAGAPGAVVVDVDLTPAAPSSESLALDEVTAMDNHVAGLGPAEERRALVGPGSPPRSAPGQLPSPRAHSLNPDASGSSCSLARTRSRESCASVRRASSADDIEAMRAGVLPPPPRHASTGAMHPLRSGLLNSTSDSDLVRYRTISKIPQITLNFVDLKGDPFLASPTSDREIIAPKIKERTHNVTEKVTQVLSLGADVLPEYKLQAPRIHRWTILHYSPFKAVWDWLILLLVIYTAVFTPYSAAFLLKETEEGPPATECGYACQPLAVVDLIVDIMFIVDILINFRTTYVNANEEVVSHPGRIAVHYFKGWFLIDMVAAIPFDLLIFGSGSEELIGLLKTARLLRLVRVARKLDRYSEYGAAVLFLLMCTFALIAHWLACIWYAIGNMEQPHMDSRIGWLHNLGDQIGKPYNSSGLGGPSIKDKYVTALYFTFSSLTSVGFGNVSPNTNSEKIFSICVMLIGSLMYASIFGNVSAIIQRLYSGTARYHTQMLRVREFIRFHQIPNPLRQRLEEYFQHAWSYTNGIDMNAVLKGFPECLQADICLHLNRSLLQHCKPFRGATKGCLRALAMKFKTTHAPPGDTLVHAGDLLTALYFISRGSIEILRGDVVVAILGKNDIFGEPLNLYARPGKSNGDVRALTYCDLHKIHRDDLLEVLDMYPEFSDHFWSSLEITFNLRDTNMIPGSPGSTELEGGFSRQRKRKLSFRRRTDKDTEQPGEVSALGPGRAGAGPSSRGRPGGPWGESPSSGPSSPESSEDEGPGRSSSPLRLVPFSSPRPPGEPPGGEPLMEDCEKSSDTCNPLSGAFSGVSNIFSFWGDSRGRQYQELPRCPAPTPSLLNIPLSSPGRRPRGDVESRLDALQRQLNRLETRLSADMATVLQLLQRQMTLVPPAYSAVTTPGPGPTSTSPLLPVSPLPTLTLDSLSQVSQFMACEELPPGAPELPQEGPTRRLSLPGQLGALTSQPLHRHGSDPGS
protocolSummary: hERG assay using IonWorks Quattro
Format: cell-based
testConditions: IonWorks protocol; read-out: IW hERG IC50
Method: Example 127A, Using IonWorks Quattro Solutions for recording hERG currents were: This was followed by a […] step of is to −30 mV to evoke the hERG tail current. This sequence was repeated 5 times at a frequency of 0.25 Hz (see FIG. 3). Currents were measured from the tail step at the 5th pulse and referenced to the holding current. Compounds were then incubated for 6-7 minutes prior to a second measurement of the hERG signal using an identical pulse train.
Counter-ions that a name gives are not always drawn.
propertyLabel: IC50 (µM)
Numeric only. Scale: µM

> print(dat)
                                   molecule  unitslabel  reportedvalue
1  N#Cc1ccc(C[C@H](N)c2ccccc2-c2noc3ccccc23)nc1 [Example 93, hydrochloride]          µM            7.5

Task: Name the reported IC50 value associated with the molecule Cc1ccc(-c2noc3ccccc23)c([C@@H](N)Cc2ccccn2)c1 [Example 36, hydrochloride]
Output: 5

Task: Name the reported IC50 value associated with the molecule COC(=O)Nc1cccc(C[C@H](N)c2ccccc2-c2noc3ccccc23)n1 [Example 124, hydrochloride]
Output: 2.3

Task: Name the reported IC50 value associated with the molecule Cc1ccc(C[C@H](N)c2ccccc2-c2noc3ccccc23)nc1 [Example 92, hydrochloride]
Output: 6.4

Task: Name the reported IC50 value associated with the molecule N#Cc1ccc2c(-c3ccccc3[C@@H](N)Cc3cccc(OCCO)n3)noc2c1 [Example 99, hydrochloride]
Output: 2.1

Task: Name the reported IC50 value associated with the molecule N[C@@H](Cc1cc(Br)ccn1)c1ccccc1-c1noc2ccccc12 [Example 117, hydrochloride]
Output: 2.2

Task: Name the reported IC50 value associated with the molecule CN(C)C(=O)c1ccc(F)c(C[C@H](N)c2ccccc2-c2noc3ccccc23)n1 [Example 74, hydrochloride]
Output: 9.9

Task: Name the reported IC50 value associated with the molecule Cc1cccc(C[C@H](N)c2c(F)cccc2-c2noc3ccccc23)n1 [Example 112, hydrochloride]
Output: 10.2

Task: Name the reported IC50 value associated with the molecule COCc1ccc2c(-c3ccccc3[C@@H](N)Cc3ccccn3)noc2c1
Output: 7.6

Task: Name the reported IC50 value associated with the molecule N[C@@H](Cc1ccccn1)c1ccccc1-c1noc2ccccc12 [Example 42, hydrochloride]
Output: 3.8

Task: Name the reported IC50 value associated with the molecule CC(C)n1nc(-c2ccccc2[C@@H](N)Cc2cccc(C#N)n2)c2ccccc21
Output: 3.7

Task: Name the reported IC50 value associated with the molecule N#Cc1cccnc1C[C@H](N)c1ccccc1-c1noc2ccccc12
Output: 1.5

Task: Name the reported IC50 value associated with the molecule Cc1ccc2c(-c3ccccc3[C@@H](N)Cc3ccccn3)noc2c1
Output: 4.4

Task: Name the reported IC50 value associated with the molecule NC(=O)c1ccc(F)c(C[C@H](N)c2ccccc2-c2noc3ccccc23)n1 [Example 72, formate]
Output: 20.9

Task: Name the reported IC50 value associated with the molecule N[C@@H](Cc1ncccn1)c1ccccc1-c1noc2ccccc12
Output: 14.4

Task: Name the reported IC50 value associated with the molecule COCCNc1cccc(C[C@H](N)c2ccccc2-c2noc3ccccc23)n1 [Example 52, hydrochloride]
Output: 1.2

Task: Name the reported IC50 value associated with the molecule Cc1cccc(-c2noc3ccccc23)c1[C@@H](N)Cc1ccccn1 [Example 84, hydrochloride]
Output: 3
